Would you kindly list MIC for each of these compounds?
System: Fluoroquinolone Sensitive Strains
Experiment: In-vitro antimicrobial test (MIC, two-fold serial agar dilution, NCCLS), Table 17
Assay type: cell-based
Details: Streptococcus pneumoniae, ATCC49619, S. pneumoniae ATCC 49619
Give bare numbers, in mg/L.

Worked examples follow.
Param item: Cc1c(N2CCC(N(C)C)C(C)C2)c(F)cc2c(=O)c(C(=O)O)cn(C3CC3)c12 (stereo not shown) [Compound 114] ; param system: Fluoroquinolone Sensitive Strains; output MIC: 0.05

Param item: CCOC(=O)NC1CCN(c2c(F)cc3c(=O)c(C(=O)O)cn(C4CC4)c3c2OC)CC1(C)C (stereo not shown) [Compound 30] ; param system: Fluoroquinolone Sensitive Strains; output MIC: 0.1

Param item: Cc1c(N2CC[C@@H](N)[C@H](C)C2)c(F)cc2c(=O)c(C(=O)O)cn(C3CC3)c12 (single isomer, unassigned) [Compound 97] ; param system: Fluoroquinolone Sensitive Strains; output MIC: 0.1

Param item: Cc1c(N2CC[C@H](O)[C@H](C)C2)c(F)cc2c(=O)c(C(=O)O)cn(C3CC3)c12 (relative stereo) [Compound 93] ; param system: Fluoroquinolone Sensitive Strains; output MIC: 0.025

Required: MIC, one value per compound below.
1. CCOC(=O)NC1CCN(c2c(F)c(N)c3c(=O)c(C(=O)O)cn(C4CC4)c3c2OC)CC1(C)C (stereo not shown) [Compound 70]
2. CCc1c(N2CC[C@H](O)[C@H](C)C2)c(F)cc2c(=O)c(C(=O)O)cn(C3CC3)c12 (relative stereo) [Compound 120]

Reply:
0.2
0.8

---

Test system: Fluoroquinolone-Resistant Strains
Experiment: In-vitro antimicrobial test (MIC, two-fold serial agar dilution, NCCLS), Table 18
Assay type: cell-based
Settings: Cipro^R S. sanguis 941
Would you kindly list MIC for each of these compounds?
Give bare numbers, in mg/L.

Worked examples follow.
The recorded MIC for entry C[C@H]1COc2c(N3CCN(C)CC3)c(F)cc3c(=O)c(C(=O)O)cn1c23 [S-(−)-levofloxacin, reference compound] equals 12.5

The recorded MIC for entry Cc1c(N2CC[C@H](O)[C@H](C)C2)c(F)cc2c(=O)c(C(=O)O)cn(C3CC3)c12 (relative stereo) equals 0.4

The recorded MIC for entry Cc1c(N2CC[C@@H](N)[C@H](C)C2)c(F)cc2c(=O)c(C(=O)O)cn(C3CC3)c12.Cl (single isomer, unassigned) equals 3.12

The recorded MIC for entry Cc1c(N2CCC(N)C(C)(C)C2)c(F)cc2c(=O)c(C(=O)O)cn(C3CC3)c12.Cl (racemic) equals 1.56

The recorded MIC for entry Cc1c(N2CC[C@@H](N)[C@H](C)C2)c(F)cc2c(=O)c(C(=O)O)cn(C3CC3)c12 (single isomer, unassigned) equals 3.12

The recorded MIC for entry Cc1c(N2CC[C@@H](O)[C@H](C)C2)c(F)cc2c(=O)c(C(=O)O)cn(C3CC3)c12 (relative stereo) equals 0.4

The recorded MIC for entry Cc1c(N2CCC(O)C(C)(C)C2)c(F)cc2c(=O)c(C(=O)O)cn(C3CC3)c12 (racemic) equals 0.4

We now examine a further compound.
The recorded MIC for entry Cc1c(N2CC[C@H](N)[C@H](C)C2)c(F)cc2c(=O)c(C(=O)O)cn(C3CC3)c12.Cl (relative stereo) equals 3.12

---

Would you kindly list MIC for each of these compounds?
System: Fluoroquinolone Sensitive Strains
Test: In-vitro antimicrobial test (MIC, two-fold serial agar dilution, NCCLS), Table 17
Assay type: cell-based
Conditions: S. sanguis ATCC 10556 (Viridans Streptococci group)
Answers are plain numbers, in µg/mL.

Worked examples follow.
The recorded MIC for entry COc1c(N2C[C@@H]3CCCN[C@@H]3C2)c(F)cc2c(=O)c(C(=O)O)cn(C3CC3)c12 [Moxifloxacin, reference compound] equals 0.4

The recorded MIC for entry Cc1c(N2CC[C@@H](O)[C@H](C)C2)c(F)cc2c(=O)c(C(=O)O)cn(C3CC3)c12 (relative stereo) equals 0.025

The recorded MIC for entry Cc1c(N2CC[C@@H](N)[C@H](C)C2)c(F)cc2c(=O)c(C(=O)O)cn(C3CC3)c12.Cl (single isomer, unassigned) equals 0.025

The recorded MIC for entry Cc1c(N2CC[C@@H](N)[C@H](C)C2)c(F)cc2c(=O)c(C(=O)O)cn(C3CC3)c12 (single isomer, unassigned) equals 0.2

The recorded MIC for entry Cc1c(N2CC[C@H](O)[C@H](C)C2)c(F)cc2c(=O)c(C(=O)O)cn(C3CC3)c12 (relative stereo) equals 0.05

Required: MIC, one value per compound below.
1. Cc1c(N2CCC(N)C(C)(C)C2)c(F)cc2c(=O)c(C(=O)O)cn(C3CC3)c12.Cl (racemic) [Compound 102]
2. C[C@H]1COc2c(N3CCN(C)CC3)c(F)cc3c(=O)c(C(=O)O)cn1c23 [S-(−)-levofloxacin, reference compound]

Reply:
0.025
1.56

Required: MIC, one value per compound below.
1. Cc1c(N2CCC(O)C(C)(C)C2)c(F)cc2c(=O)c(C(=O)O)cn(C3CC3)c12 (racemic)
2. Cc1c(N2CCC(N)C(C)(C)C2)c(F)cc2c(=O)c(C(=O)O)cn(C3CC3)c12.Cl (single isomer, unassigned; (+)) [Compound 106]
3. Cc1c(N2CC[C@H](N)[C@H](C)C2)c(F)cc2c(=O)c(C(=O)O)cn(C3CC3)c12.Cl (relative stereo)

Reply:
[0.025, 0.1, 0.025]

---

Test system: V79 (Chinese Hamster Lung)
Assay: Cytotoxicity test (Alamar blue), V79 cells, Table 23
Format: cell-based
Details: 3 hrs drug exposure, further 96 hrs incubation
parameter: Cytotoxic concentration, V 79 CHL

Worked examples follow.
The recorded Cytotoxic concentration, V 79 CHL for entry Cc1c(N2CC[C@@H](O)[C@H](C)C2)c(F)cc2c(=O)c(C(=O)O)cn(C3CC3)c12 (relative stereo) equals >1000 µg/mL

The recorded Cytotoxic concentration, V 79 CHL for entry Cc1c(N2CC[C@@H](N)[C@H](C)C2)c(F)cc2c(=O)c(C(=O)O)cn(C3CC3)c12 (single isomer, unassigned) equals >1000 µg/mL

The recorded Cytotoxic concentration, V 79 CHL for entry Cc1c(N2CCC(N)C(C)(C)C2)c(F)cc2c(=O)c(C(=O)O)cn(C3CC3)c12.Cl (racemic) equals 750 µg/mL

The recorded Cytotoxic concentration, V 79 CHL for entry Cc1c(N2CC[C@H](N)[C@H](C)C2)c(F)cc2c(=O)c(C(=O)O)cn(C3CC3)c12.Cl (relative stereo) equals 125 µg/mL

The recorded Cytotoxic concentration, V 79 CHL for entry COc1c(N2CCC(N)C(C)(C)C2)c(F)cc2c(=O)c(C(=O)O)cn(C3CC3)c12.Cl (racemic) equals >1000 µg/mL

Required: Cytotoxic concentration, V 79 CHL, one value per compound below.
1. Cc1c(N2CC[C@@H](N)[C@H](C)C2)c(F)cc2c(=O)c(C(=O)O)cn(C3CC3)c12.Cl (single isomer, unassigned)
2. Cc1c(N2CCC(O)C(C)(C)C2)c(F)cc2c(=O)c(C(=O)O)cn(C3CC3)c12 (racemic)
3. Cc1c(N2CC[C@H](O)[C@H](C)C2)c(F)cc2c(=O)c(C(=O)O)cn(C3CC3)c12 (relative stereo)

Reply:
1: 250 µg/mL; 2: >1000 µg/mL; 3: >1000 µg/mL

---

System: J 744 (mouse macrophage)
Assay: Cytotoxicity test (Alamar blue), J 744 cells, Table 23
Format: cell-based
Conditions: 3 hrs drug exposure, further 96 hrs incubation
parameter: Cytotoxic concentration, J 744 Macrophage

Worked examples follow.
The recorded Cytotoxic concentration, J 744 Macrophage for entry Cc1c(N2CC[C@@H](N)[C@H](C)C2)c(F)cc2c(=O)c(C(=O)O)cn(C3CC3)c12 (single isomer, unassigned) [Compound 97] equals >1000 µg/mL

The recorded Cytotoxic concentration, J 744 Macrophage for entry Cc1c(N2CC[C@@H](O)[C@H](C)C2)c(F)cc2c(=O)c(C(=O)O)cn(C3CC3)c12 (relative stereo) [Compound 94] equals >1000 µg/mL

The recorded Cytotoxic concentration, J 744 Macrophage for entry COc1c(N2CCC(N)C(C)(C)C2)c(F)cc2c(=O)c(C(=O)O)cn(C3CC3)c12.Cl (single isomer, unassigned; (-)) [Compound 26] equals >1000 µg/mL

The recorded Cytotoxic concentration, J 744 Macrophage for entry COc1c(N2CCC(N)C(C)(C)C2)c(F)cc2c(=O)c(C(=O)O)cn(C3CC3)c12.Cl (racemic) [Compound 18] equals >1000 µg/mL

The recorded Cytotoxic concentration, J 744 Macrophage for entry COc1c(N2CCC(N)C(C)(C)C2)c(F)cc2c(=O)c(C(=O)O)cn(C3CC3)c12.Cl (single isomer, unassigned; (+)) [Compound 22] equals >1000 µg/mL

The recorded Cytotoxic concentration, J 744 Macrophage for entry N[C@@H]1[C@H]2CN(c3nc4c(cc3F)c(=O)c(C(=O)O)cn4-c3ccc(F)cc3F)C[C@@H]12 [Trovafloxacin] equals 500 µg/mL

The recorded Cytotoxic concentration, J 744 Macrophage for entry Cc1c(N2CC[C@H](N)[C@H](C)C2)c(F)cc2c(=O)c(C(=O)O)cn(C3CC3)c12.Cl (relative stereo) [Compound 100] equals 1000 µg/mL

We now examine a further compound.
The recorded Cytotoxic concentration, J 744 Macrophage for entry Cc1c(N2CCC(N)C(C)(C)C2)c(F)cc2c(=O)c(C(=O)O)cn(C3CC3)c12.Cl (racemic) [Compound 102] equals 1000 µg/mL
